B1: library; a variant is named by its letters at N, in order (parent)
chain: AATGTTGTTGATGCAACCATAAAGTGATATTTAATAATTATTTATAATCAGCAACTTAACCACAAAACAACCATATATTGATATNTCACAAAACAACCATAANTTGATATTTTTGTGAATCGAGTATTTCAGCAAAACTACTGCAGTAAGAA

- Variants of: B1
- experiment_description: relative integration efficiency (T-RL orientation) vs wild-type transposon end (log2 (normalized fold change)); transposon end mutated: left end; higher = more efficient transposition
- measurement_parameters: with VchCAST RNA-guided transposition machinery (E. coli BL21(DE3) host, lacZ target)
recorded_endpoint: relative integration efficiency (log2)

{"columns": ["sequence_change", "observed_value"],
 "data": [
  ["CG T43G A44C A46G T48A C49G A50C C52A A53G T56A T57C A58C", -2.55],
  ["CG C94A A95C A96C C97A", -1.87],
  ["CG T104A", -0.341],
  ["CG C52A A53C", -0.177],
  ["CG A34C T35G T39C T41A T45A G51T C52A A53G A54G C60T A62G C63A", -0.0678],
  ["CG T100G", -0.706],
  ["CG T57G A58C A59C C60A", -0.817],
  ["CG T104C", -0.257],
  ["CG A21C A75C A101C", -3.08],
  ["TA T76A T78G C87A A102T T111C T113C", -0.0993],
  ["CG C89A A90C", -0.181]
]}
